Molecular target: UniProtKB Q03431
Sequence (Q03431 27-593): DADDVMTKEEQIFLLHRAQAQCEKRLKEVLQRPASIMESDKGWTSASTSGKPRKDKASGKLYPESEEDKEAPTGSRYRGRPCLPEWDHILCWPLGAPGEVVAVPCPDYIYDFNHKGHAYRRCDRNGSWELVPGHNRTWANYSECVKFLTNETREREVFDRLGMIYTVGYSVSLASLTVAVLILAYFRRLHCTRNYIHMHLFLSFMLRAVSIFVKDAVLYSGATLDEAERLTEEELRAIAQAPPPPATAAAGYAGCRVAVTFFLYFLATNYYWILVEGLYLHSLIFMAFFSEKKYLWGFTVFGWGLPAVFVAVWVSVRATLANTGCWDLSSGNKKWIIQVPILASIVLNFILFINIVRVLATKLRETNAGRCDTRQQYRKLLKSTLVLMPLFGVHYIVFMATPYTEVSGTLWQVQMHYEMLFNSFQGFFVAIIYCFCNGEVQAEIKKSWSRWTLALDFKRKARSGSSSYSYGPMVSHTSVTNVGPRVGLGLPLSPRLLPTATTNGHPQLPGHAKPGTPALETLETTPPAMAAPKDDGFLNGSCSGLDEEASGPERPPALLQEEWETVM
Assay: In vitro cAMP signal activity in HKRK-B7 cells (LLC-PK1 cells overexpressing the human PTH1 receptor)
Assay type: cell-based
Settings: HKRK-B7 cells; compound at 1×10^−3 M; cAMP produced as percentage of that produced by hPTH(1-34) at 100 nM
Readings of cAMP production activity (%) for the listed compounds

# Compound, cAMP production activity (%)
data = [
    ("Cc1cc(S(=O)(=O)NCC(F)(F)F)ccc1/C=C/S(=O)(=O)N1CCC2(CC1)N=C(c1cccc(C(F)(F)F)c1)NC2=O [Compound 217]", 41),
    ("Cc1noc(C2CCN(C(=O)c3ccc(CCS(=O)(=O)N4CCC5(CC4)N=C(c4cccc(C(F)(F)F)c4)NC5=O)c(C)c3)CC2)n1 [Compound 358]", 71),
    ("CN(C)C(=O)Nc1ccc(CCS(=O)(=O)N2CCC3(CC2)N=C(C2CCCCC2)NC3=O)c(C(F)(F)F)c1 [Compound 273]", 55),
]

---

Biological target: UniProt:Q03431
Test: In vitro cAMP signal activity in HKRK-B7 cells (LLC-PK1 cells overexpressing the human PTH1 receptor)
Format: cell-based
Settings: HKRK-B7 cells; compound at 1×10^−3 M; cAMP produced as percentage of that produced by hPTH(1-34) at 100 nM
Readout Name: cAMP production activity (%)

# Compound, Readout Name, Value
measured = [
    ("Cc1cc(C(=O)N2CCN(C3CCN(C)CC3)CC2)ccc1CCS(=O)(=O)N1CCC2(CC1)N=C(c1cccc(C(F)(F)F)c1)NC2=O [Compound 958]", "cAMP production activity (%)", 49),
    ("O=C1NC(c2cccc(C(F)(F)F)c2)=NC12CCN(S(=O)(=O)CCc1cccc3c1ccn3C[C@H](O)CO)CC2 [Compound 840]", "cAMP production activity (%)", 98),
    ("Cc1cc(C(=O)N2CCC(C)(O)CC2)cc(C)c1/C=C/S(=O)(=O)N1CCC2(CC1)N=C(c1ccc(OCCCC(F)(F)C(F)(F)F)c(F)c1)NC2=O [Compound 1207]", "cAMP production activity (%)", 112),
    ("Cc1cc(N2C(=O)C[C@H](NC(=O)OC(C)(C)C)C2=O)ccc1/C=C/S(=O)(=O)N1CCC2(CC1)N=C(c1cccc(C(F)(F)F)c1)NC2=O [Compound 525]", "cAMP production activity (%)", 14),
    ("Cc1cc(C(=O)N2CCC(C)(O)CC2)cc(C)c1/C=C/S(=O)(=O)N1CCC2(CC1)N=C(c1ccc(C(F)(F)C(F)(F)F)cc1)NC2=O [Compound 1195]", "cAMP production activity (%)", 82),
    ("CC1=NC2(CCN(S(=O)(=O)c3cccc(Cl)c3)CC2)C(=O)N1 [Compound 8]", "cAMP production activity (%)", 2.6),
]
